The measurements presented in this section are drawn from patent US10226464B2.

These records show IC50 for UniProtKB Q04864.
Sequence (Q04864 whole entry): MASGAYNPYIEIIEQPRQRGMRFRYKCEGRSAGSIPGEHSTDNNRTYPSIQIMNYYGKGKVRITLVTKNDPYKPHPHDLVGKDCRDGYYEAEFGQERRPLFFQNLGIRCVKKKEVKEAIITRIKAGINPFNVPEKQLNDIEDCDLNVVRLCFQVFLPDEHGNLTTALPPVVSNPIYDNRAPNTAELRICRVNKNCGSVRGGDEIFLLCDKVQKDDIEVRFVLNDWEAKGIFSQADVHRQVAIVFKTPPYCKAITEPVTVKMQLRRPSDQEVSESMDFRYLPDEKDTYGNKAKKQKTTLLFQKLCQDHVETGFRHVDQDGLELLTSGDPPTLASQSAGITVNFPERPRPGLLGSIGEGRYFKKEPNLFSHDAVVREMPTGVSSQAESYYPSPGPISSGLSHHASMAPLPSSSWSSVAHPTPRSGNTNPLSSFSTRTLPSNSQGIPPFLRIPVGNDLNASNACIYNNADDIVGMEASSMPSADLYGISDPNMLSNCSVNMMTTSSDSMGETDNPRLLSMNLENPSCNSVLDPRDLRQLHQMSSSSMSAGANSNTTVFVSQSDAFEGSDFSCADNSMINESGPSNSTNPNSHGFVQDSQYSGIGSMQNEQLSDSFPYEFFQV
readout name: IC50

sample smiles	measured on	readout name	result
CCCc1cc2oc3nc(=O)[nH]c(=O)c-3cc2cc1Cl	UniProtKB Q04864	IC50	< 1 µM
COCCOCCCOc1cc2oc3nc(=O)[nH]c(=O)c-3cc2cc1F	UniProtKB Q04864	IC50	< 1 µM
CC(C)(C)COc1cc2oc3nc(=O)[nH]c(=O)c-3cc2cc1F	UniProtKB Q04864	IC50	< 0.5 µM
CCCCCCOc1ccc2cc3c(=O)[nH]c(=O)nc-3oc2c1	UniProtKB Q04864	IC50	< 1 µM
COc1cc(Cl)cc2cc3c(=O)[nH]c(=O)nc-3oc12	UniProtKB Q04864	IC50	< 2 µM
CCCCCCOc1ccc2cc3c(=O)[nH]c(=O)nc-3oc2c1Cl	UniProtKB Q04864	IC50	< 0.5 µM
CCCCOc1ccc2cc3c(=O)[nH]c(=O)nc-3oc2c1	UniProtKB Q04864	IC50	< 1 µM
COCCOCCOc1cc2oc3nc(=O)[nH]c(=O)c-3cc2cc1F	UniProtKB Q04864	IC50	< 1 µM
CCOc1cc(Cl)cc2cc3c(=O)[nH]c(=O)nc-3oc12	UniProtKB Q04864	IC50	< 2 µM
CCCCCCCOc1cc2oc3nc(=O)[nH]c(=O)c-3cc2cc1F	UniProtKB Q04864	IC50	< 0.5 µM

###

System: NF-κB
Experiment: NF-κB GFP Assay (NFκB/Jurkat/GFP transcriptional reporter cell line)
Assay type: cell-based
Settings: Homo sapiens; NF-κB/Jurkat/GFP reporter cells, TNF-α 5 ng/ml, 24 hours; read-out: NF-KB GFP IC50
Let's look at some compounds and their measured IC50.

sample smiles	IC50
O=c1nc2oc3ccccc3cc-2c(=O)[nH]1	< 20 µM
O=c1[nH]c(=S)nc2oc3cc(O)ccc3cc1-2	< 30 µM
CCCCCCOc1cc2oc3nc(=O)[nH]c(=O)c-3cc2cc1F	< 5 µM
COCCCCOc1ccc2cc3c(=O)[nH]c(=O)nc-3oc2c1Cl	< 5 µM
CC(=O)OCCCCCCOc1ccc2cc3c(=O)[nH]c(=O)nc-3oc2c1Cl	< 20 µM
CCCCCCCOc1ccc2cc3c(=O)[nH]c(=O)nc-3oc2c1Cl	< 10 µM
CCCCn1c(=O)nc2oc3cc(OCC)ccc3cc-2c1=O	< 30 µM
COCCOCCCOc1cc2oc3nc(=O)[nH]c(=O)c-3cc2cc1F	< 5 µM
O=C(O)CCCOc1ccc2cc3c(=O)[nH]c(=O)nc-3oc2c1Cl	< 20 µM
COCCOCCOc1cc2oc3nc(=O)[nH]c(=O)c-3cc2cc1F	< 5 µM
CC(C)COc1ccc2cc3c(=O)[nH]c(=O)nc-3oc2c1	< 5 µM
COCCOCCOc1ccc2cc3c(=O)[nH]c(=O)nc-3oc2c1	< 5 µM
CCCCOc1cc2oc3nc(=O)[nH]c(=O)c-3cc2cc1F	< 5 µM
CCCCCCOc1ccc2cc3c(=O)[nH]c(=O)nc-3oc2c1Cl	< 3 µM
O=c1nc2oc3cc(O)ccc3cc-2c(=O)[nH]1	< 20 µM
